Task for the reader: assign each of the following compounds its reported IC50.
Assay: DPPH antioxidant assay (radical scavenging)
Assay type: biochemical
Settings: mean ± SD (n = 3)

Give the measured IC50 for CC(=O)c1ccc(NS(=O)(=O)c2c(O)c3cc(C)ccc3oc2=O)cc1
35.36 ± 3.265 µg/mL

Retrieve IC50 measured for Cc1ccc2oc(=O)c(S(=O)(=O)Nc3ccc(S(=O)(=O)Nc4nccs4)cc3)c(O)c2c1 and print it.
83.52 ± 1.849 µg/mL

Report IC50 for Cc1ccc2oc(=O)c(S(=O)(=O)Nc3ccccc3)c(O)c2c1
19.25 ± 4.171 µg/mL

Input O=c1oc2ccc(Cl)cc2c(O)c1S(=O)(=O)Nc1ccc(O)cc1 , output reported IC50.
3.87 ± 0.409 µg/mL

Tell me measured IC50 for O=c1oc2ccc(Cl)cc2c(O)c1S(=O)(=O)Nc1ccc(S(=O)(=O)Nc2nccs2)cc1 please.
71.67 ± 3.231 µg/mL

Recall and state the measured IC50 for Cc1ccc2oc(=O)c(S(=O)(=O)Nc3ccc(O)cc3)c(O)c2c1 .
4.30 ± 0.531 µg/mL

Determine from records and report IC50 for Cc1ccc2oc(=O)c(S(=O)(=O)Nc3ccc(S(N)(=O)=O)cc3)c(O)c2c1
61.78 ± 2.719 µg/mL

Answer with the recorded IC50 for the compound listed here: Cc1ccc2oc(=O)c(S(=O)(=O)Nc3ccc(S(=O)(=O)Nc4ncccn4)cc3)c(O)c2c1
112.19 ± 4.391 µg/mL

Recall and state the measured IC50 for O=C1O[C@H]([C@@H](O)CO)C(O)=C1O [Ascorbic acid, reference compound] .
2.83 ± 0.166 µg/mL

Read the entry CC(=O)c1ccc(NS(=O)(=O)c2c(O)c3cc(Cl)ccc3oc2=O)cc1 and write its reported IC50.
32.85 ± 1.322 µg/mL

Quick one: give measured IC50 for COc1cc(/C=N/C2=C(C#N)C(c3ccco3)c3c(c4cc(C)ccc4oc3=O)O2)cc(OC)c1OC (racemic)
82.92 ± 3.300 µg/mL
